Reported protein stability index is given for each of the following variants.
B1: LARP4 (parent)
chain: WTVANMEEIKKLTTDPDLILEVLR

# Variants of: B1
# method-notes: protein stability index of a GFP-peptide fusion (GPS, HEK-293T) (PSI 1-6); higher = more stable;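 also: lentivirally expressed fusions sorted by FACS into six bins by GFP to DsRed ratio, PSI derived from sequencing read proportions per bin multiplied by bin number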
# measurement-setup: c terminus: a fixed tail appended
// return just the number, without any unit appended

Consider WTVANMEEIKKLVTDPDLILEVLR [T13V] . Its measured protein stability index is 2.94

Consider WTEANMEEIKKLTTDPDLILEVLR [V3E] . Its measured protein stability index is 3.01

Consider WTIANMEEIKKLTTDPDLILEVLR [V3I] . Its measured protein stability index is 2.37

Consider WTVANMEEIKKLTTDPDLILAVLR [E21A] . Its measured protein stability index is 2.1

Consider WYVANMEEIKKLTTDPDLILEVLR [T2Y] . Its measured protein stability index is 1.05

Consider WTVANMEEIKKLTTDPKLILEVLR [D17K] . Its measured protein stability index is 2.05

Consider WTVANMEEIKKLTCDPDLILEVLR [T14C] . Its measured protein stability index is 1.77
